Run Description: Solubility of PMIDA in water and HCl (saturation concentrations)
Format: physicochemical
Stated Conditions: water, 37.8 °C, thermodynamic from solid, 200 psi, H2O, 100° F.
From the text: In certain embodiments, the organic compound comprising a phosphonoalkyl moiety is at least partially solubilized in the organic or mineral acid. […]
Measured Endpoint: solubility thermodynamic (mg/mL)
The reply should contain only the number, in mg/mL.

Looking up O=C(O)CN(CC(=O)O)CP(=O)(O)O [PMIDA, N-(phosphonomethyl)iminodiacetic acid] , I see its solubility thermodynamic listed as 18.3
